method: Pharmacokinetic/toxicokinetic evaluation in rats
Format: in vivo
condition-label: female, rat, plasma, iv, 7.6 mg/kg, female, Dose 5, read-out: terminal half-life (converted)
measured-metric: half-life (h)
Give the value in h but do not write h after it.

Requested field: half-life. Item: CN1CCCC1CCNC(=O)c1cn2c3c(c(N4CCC(c5cnccn5)C4)c(F)cc3c1=O)Oc1cc3ccccc3cc1-2 (stereo not shown) [CX-3543]
4.8

---

assay-system: c-Myc template DNA (c-myc quadruplex)
method: Quadruplex binding / stop assay (Taq polymerase arrest, capillary electrophoresis)
condition-label: read-out: S DATA; Table 1D, stop assay data
measured-metric: IC50 (µM)
Write the number in µM without appending the unit.

// worked examples, IC50 included
CC1CCCN(CCCNc2c(F)cc3c(=O)c(C(=O)NCCC4CCCN4C)cn4c3c2Oc2cc3ccccc3cc2-4)C1 (stereo not shown) [compound 1685]: 1.75
O=C(NCCN1CCCC1)c1cn2c3cc4c(cc3oc3c(N5CC6CCCNC6C5)c(F)cc(c1=O)c32)c(=O)c1ccccc14 (stereo not shown) [compound 1726]: 0.125
O=C(NCCN1CCCC1)c1cn2c3c(c(N4CCN(Cc5ccoc5)CC4)c(F)cc3c1=O)Oc1cc(Cl)ccc1-2 [compound 1832]: 10
NC1CCN(c2c(F)cc3c(=O)c(C(=O)NCCN4CCCC4)cn4c3c2Oc2cc(Cl)ccc2-4)C1 (stereo not shown) [compound 1800]: 2.6
CC1(C)CC(NC(=O)c2cn3c4c(c(N5CCC(NC(=O)OC(C)(C)C)C5)ccc4c2=O)Oc2cc4ccccc4cc2-3)CC(C)(C)N1 (stereo not shown) [compound 1537]: 1.75

Let us examine a further case.
Give its IC50 value. Item: N=C(N)NCCCCNC(=O)c1cn2c3c(c(NCCCN4CCOCC4)c(F)cc3c1=O)Oc1cc3ccccc3cc1-2 [compound 1650]
1

The measurements presented in this section are drawn from patent US7507727B2.
